- tested-on: T1, human 4-1BB on CHO-K1 cells (human, UniProt Q07011 24-255)
- T1 construct: whole, on cells; also called CHO-K1/hu 4-1BB; CHO-K1/hu4-1BB
- test-protocol: FACS, CHO-K1/hu 4-1BB cells
pEC50: −log10 of the molar value.
reported-property: pEC50

Fill blank: measured pEC50 of the binder PR001833 (antibody, human IgG1, V domains shown, HCAb, heavy chain only, human IgG1 Fc; also called 1016P0016F8) VH: EVQLLESGGGLVQPGGSLRLSCAASGFTFSSYAMSWVRQAPEKGLEWVSSISGSGGSTFYADSVKGRFTISRDNSKNTLYLQMNSLRAEDTAVYFCAKEGATETDDYHFNTDVWGQGTTVTVSS is ____.
> 9.52

Fill blank: measured pEC50 of the binder PR001836 (antibody, human IgG1, V domains shown, HCAb, heavy chain only, human IgG1 Fc; also called 1016P0020G4) VH: EVQLLESGGGLVQPGGSLRLSCAASGFIFSNFAMTWVRQPPEKGLKWVSSINGSGFNTYYTDSVKGRFTISRDNSRNTLYLQMNRLTAEDTAVYFCAKEGSSETDDHYYNVDVWGQGTTVTVSS is ____.
> 9.52
